B1: SOAT1 (parent)
chain: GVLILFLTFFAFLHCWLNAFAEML

Variants of: B1
Experiment: protein stability index of a GFP-peptide fusion (GPS, HEK-293T) (PSI 1-6); higher = more stable;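 further: lentivirally expressed fusions sorted by FACS into six bins by GFP to DsRed ratio, PSI derived from sequencing read proportions per bin multiplied by bin number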
Settings: c terminus: a fixed tail appended
Item-by-item account of protein stability index
Please give the numeric answer without any surrounding text.

// known answers, use as guide
[[record]]
mutationlist = "V2Q"
measuredresult = 2.56

[[record]]
mutationlist = "L7C"
measuredresult = 1.91


input: Give protein stability index for L3F
output: 2.69

input: Give protein stability index for L3G
output: 2.85

input: Give protein stability index for I4C
output: 2.42

input: Give protein stability index for I4D
output: 1.73

input: Give protein stability index for A19P
output: 2.31
